- subject-of-test: Mas-related G-protein coupled receptor member X2 (Homo sapiens, UniProt Q96LB1)
- Sequence (Q96LB1 whole entry): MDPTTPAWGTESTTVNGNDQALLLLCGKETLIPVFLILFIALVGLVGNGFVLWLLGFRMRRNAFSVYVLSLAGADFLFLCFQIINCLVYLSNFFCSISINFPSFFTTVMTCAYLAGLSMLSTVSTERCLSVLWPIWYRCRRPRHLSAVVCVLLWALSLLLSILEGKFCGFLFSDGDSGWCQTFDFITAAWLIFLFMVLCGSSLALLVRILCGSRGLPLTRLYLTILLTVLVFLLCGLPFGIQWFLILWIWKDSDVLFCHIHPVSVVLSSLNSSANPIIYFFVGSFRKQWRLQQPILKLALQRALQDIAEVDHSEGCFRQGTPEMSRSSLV
- procedure-text: Agonist activity at human MrgX2 receptor
pEC50: −log10 of the molar value. Bridge positions count the residues as written; N and C are the ends. Peptide text beside a SMILES is read from it.
Please enter met where pEC50 is greater than or equal to 6, and not met where it is lower.

compound	label-class
CC(C)[C@H]1C(=O)Nc2ccc(N3CCN(Cc4ccccc4)CC3)cc2-c2nc3cc(C(=O)N(C)C4CCN(C)CC4)ccc3n21	met
CCC(C)[C@H]1C(=O)Nc2ccc(NCCCN(C)C)cc2-c2nc3cc(C(=O)NCc4cccc(C(F)(F)F)c4)ccc3n21 (some centres not stated)	met
CC(C)[C@H]1C(=O)Nc2ccc(NC3CCCCCC3)cc2-c2nc3cc(C(=O)N4CCCN(C)CC4)ccc3n21	met
CC(C)[C@H]1C(=O)Nc2ccc(NCc3ccccc3)cc2-c2nc3cc(C(=O)N(C)C4CCN(C)CC4)ccc3n21	met
CCC(C)[C@H]1C(=O)Nc2ccc(NCCN3CCCCC3)cc2-c2nc3cc(C(=O)NCc4cccc(C(F)(F)F)c4)ccc3n21 (some centres not stated)	not met
C[C@@H](O)[C@@H]1NC(=O)[C@H](CCCCN)NC(=O)[C@H](Cc2c[nH]c3ccccc23)NC(=O)[C@H](Cc2ccccc2)NC(=O)[C@H](Cc2ccccc2)NC(=O)[C@H](CC(N)=O)NC(=O)[C@H](CCCCN)NC(=O)[C@@H](NC(=O)[C@@H]2CCCN2)CSSC[C@@H](C(=O)N[C@@H](CCCCN)C(=O)O)NC(=O)[C@H](CO)NC(=O)[C@H](CO)NC(=O)[C@H](Cc2ccccc2)NC1=O [CORTISTATIN-14] (H-PCKNFFWKTFSSCK-OH; disulfide 2-13)	met

---

- Organism: Macaca mulatta
- procedure-text: Agonist activity at monkey MrgX1 receptor at 10 uM relative to BAM22
- Assay type: functional
Active and inactive are the calls of the source. The rule behind the calls is not given here. Bridge positions count the residues as written; N and C are the ends. Square brackets hold non-standard residues; d marks the D form. Peptide text beside a SMILES is read from it.

molecule	Efficacy
CC(C)[C@H]1C(=O)Nc2ccc(NC3CCCCCC3)cc2-c2nc3cc(C(=O)N4CCCN(C)CC4)ccc3n21	inactive
CCC(C)[C@H]1C(=O)Nc2ccc(NCCCN(C)C)cc2-c2nc3cc(C(=O)NCc4cccc(C(F)(F)F)c4)ccc3n21 (stereo not given in full)	157%
CCC(C)[C@H]1C(=O)Nc2ccc(NCCOCCOCCN)cc2-c2nc3cc(C(=O)NCc4cccc(C(F)(F)F)c4)ccc3n21 (stereo not given in full)	126%
CCC(C)[C@H]1C(=O)Nc2ccc(N3CCC(NC(C)=O)C3)cc2-c2nc3cc(C(=O)NCc4cccc(C(F)(F)F)c4)ccc3n21 (stereo not given in full)	124%
C[C@@H](O)[C@@H]1NC(=O)[C@@H](CCCCN)NC(=O)[C@H](Cc2c[nH]c3ccccc23)NC(=O)[C@H](Cc2ccccc2)NC(=O)[C@H](Cc2ccccc2)NC(=O)[C@H](CC(N)=O)NC(=O)[C@H](CCCCN)NC(=O)[C@@H](NC(=O)[C@@H]2CCCN2)CSSC[C@@H](C(=O)N[C@@H](CCCCN)C(=O)O)NC(=O)[C@H](CO)NC(=O)[C@H](CO)NC(=O)[C@@H](Cc2ccccc2)NC1=O [CORTISTATIN-14] (H-PCKNFFW[dK]T[dF]SSCK-OH; disulfide 2-13)	inactive

---

- subject-of-test: Mas-related G-protein coupled receptor member X2 (Homo sapiens)
- procedure-text: Agonist activity at human MrgX2 receptor at 10 uM relative to cortistatin-14
- Assay type: functional
Bridge positions count the residues as written; N and C are the ends. Square brackets hold non-standard residues; d marks the D form. Peptide text beside a SMILES is read from it.

molecule	Efficacy
CC(C)[C@H]1C(=O)Nc2ccc(NCCCN(C)C)cc2-c2nc3cc(C(=O)N4CCN(c5ccc(F)cc5)CC4)ccc3n21	60%
CCC(C)[C@H]1C(=O)Nc2ccc(N3CCC(NC(C)=O)C3)cc2-c2nc3cc(C(=O)NCc4cccc(C(F)(F)F)c4)ccc3n21 (some centres not stated)	41%
CCC(C)[C@H]1C(=O)Nc2ccc(NCCN3CCCCC3)cc2-c2nc3cc(C(=O)NCc4cccc(C(F)(F)F)c4)ccc3n21 (some centres not stated)	28%
CC(C)[C@H]1C(=O)Nc2ccc(N3CCN(Cc4ccccc4)CC3)cc2-c2nc3cc(C(=O)N(C)C4CCN(C)CC4)ccc3n21	216%
CC(C)[C@H]1C(=O)Nc2ccc(NC3CCCCCC3)cc2-c2nc3cc(C(=O)N4CCCN(C)CC4)ccc3n21	110%
C[C@@H](O)[C@@H]1NC(=O)[C@@H](CCCCN)NC(=O)[C@H](Cc2c[nH]c3ccccc23)NC(=O)[C@H](Cc2ccccc2)NC(=O)[C@H](Cc2ccccc2)NC(=O)[C@H](CC(N)=O)NC(=O)[C@H](CCCCN)NC(=O)[C@@H](NC(=O)[C@@H]2CCCN2)CSSC[C@@H](C(=O)N[C@@H](CCCCN)C(=O)O)NC(=O)[C@H](CO)NC(=O)[C@H](CO)NC(=O)[C@@H](Cc2ccccc2)NC1=O [CORTISTATIN-14] (H-PCKNFFW[dK]T[dF]SSCK-OH; disulfide 2-13)	100%

---

In this section we review reported Efficacy values for a set of molecules.
- Species on record: Macaca mulatta
- procedure-text: Agonist activity at monkey MrgX1 receptor at 10 uM relative to BAM22
- Assay type: functional

molecule	Efficacy
CC(C)[C@H]1C(=O)Nc2ccc(NCCCN(C)C)cc2-c2nc3cc(C(=O)N4CCN(c5ccc(F)cc5)CC4)ccc3n21	102%
CC(=O)NC1CCN(c2ccc3c(c2)-c2nc4cc(C(=O)N5CCN(c6ccc(F)cc6)CC5)ccc4n2[C@@H](C(C)C)C(=O)N3)C1 (stereo not given in full)	89%
CC(C)[C@H]1C(=O)Nc2ccc(NCCN3CCCCC3)cc2-c2nc3cc(C(=O)N4CCN(c5ccc(F)cc5)CC4)ccc3n21	57%
CCC(C)[C@H]1C(=O)Nc2ccc(NCCN3CCCCC3)cc2-c2nc3cc(C(=O)NCc4cccc(C(F)(F)F)c4)ccc3n21 (stereo not given in full)	127%

---

- Organism: Macaca mulatta
- procedure-text: Agonist activity at monkey MrgX2 receptor at 10 uM relative to cortistatin-14
- Format: functional
Active and inactive are the calls of the source. The rule behind the calls is not given here. Bridge positions count the residues as written; N and C are the ends. Square brackets hold non-standard residues; d marks the D form. Peptide text beside a SMILES is read from it.

compound	Efficacy
CCC(C)[C@H]1C(=O)Nc2ccc(NCCN3CCCCC3)cc2-c2nc3cc(C(=O)NCc4cccc(C(F)(F)F)c4)ccc3n21 (some centres undefined)	inactive
CC(=O)NC1CCN(c2ccc3c(c2)-c2nc4cc(C(=O)N5CCN(c6ccc(F)cc6)CC5)ccc4n2[C@@H](C(C)C)C(=O)N3)C1 (some centres undefined)	inactive
C[C@@H](O)[C@@H]1NC(=O)[C@@H](CCCCN)NC(=O)[C@H](Cc2c[nH]c3ccccc23)NC(=O)[C@H](Cc2ccccc2)NC(=O)[C@H](Cc2ccccc2)NC(=O)[C@H](CC(N)=O)NC(=O)[C@H](CCCCN)NC(=O)[C@@H](NC(=O)[C@@H]2CCCN2)CSSC[C@@H](C(=O)N[C@@H](CCCCN)C(=O)O)NC(=O)[C@H](CO)NC(=O)[C@H](CO)NC(=O)[C@@H](Cc2ccccc2)NC1=O [CORTISTATIN-14] (H-PCKNFFW[dK]T[dF]SSCK-OH; disulfide 2-13)	86%
CC(C)[C@H]1C(=O)Nc2ccc(NCCCN(C)C)cc2-c2nc3cc(C(=O)N4CCN(c5ccc(F)cc5)CC4)ccc3n21	inactive
